# Tested on: HCT-116 colon
# procedure-text: NCI-60 one-dose screen, 48 h
# run-conditions: 10 µM unless noted
This is part of a sample that, as a whole, favours compounds with a hit. Of some 83,000 tested, about 20% had one in any assay. Activity calls are given as the source filed them. The calls were made as follows: active = growth percent below 10; inactive = the rest.
In this exercise, the only acceptable responses are class 1 (active), class 0 (inactive)

Below are worked cases with known answers.
{"compound": "COC(=O)[C@]12CC[C@@H](C)[C@H](C)[C@@H]1C1=CC[C@@H]3[C@@](C)(CC#N)C4=C(C[C@@]3(C)[C@]1(C)CC2)OC[C@]4(C)C=O", "label-class": "class 1"}
{"compound": "O=C1C(=O)c2ccccc2C(O)=C1CCCc1ccc(C2CCCCC2)cc1", "label-class": "class 0"}
{"compound": "COc1cc2ncnc(Nc3ccc(Oc4ccnc(C)c4)c(C)c3)c2cc1NC(=O)CC1CCSS1 (stereo not given)", "label-class": "class 1"}
{"compound": "N#C/C(=C\\c1ccc(-c2ccccc2)o1)c1nc(-c2ccco2)cs1", "label-class": "class 0"}
{"compound": "C/C(=N/NC(N)=S)C(=O)O", "label-class": "class 0"}

Entry Nc1c(C(=O)Nc2c(Cl)cccc2Cl)sc2nc3c(cc12)C(=O)CCC3 : call = ?
class 0

Now try Cc1nc([P+](c2ccccc2)(c2ccccc2)c2ccccc2)c(Sc2sc(-c3ccccc3)nc2[P+](c2ccccc2)(c2ccccc2)c2ccccc2)o1 .
class 1

Now try Cn1c(=O)c2c(nc(N3CCCC3)n2C)n(C)c1=O .
class 0

Now try Fc1cccc(-c2[nH]nc3nc(Nc4cccnc4)sc23)c1 .
class 0

Now try Nc1ccc(Br)cn1 .
class 0

Now try Brc1cnc2[nH]cc(-c3nnc(-c4ccccc4)o3)c2c1 .
class 0

Now try O=C(O)/C(=C/c1ccc(O)cc1)c1ccccc1 .
class 0

Now try COc1ccc(CCN2C(=O)C(C)(C)SC2=S)cc1OC .
class 0

Now try [B-][N+](CC)(CC)c1ccccc1 .
class 0

---

# Test system: OVCAR-5 ovarian
# procedure-text: NCI-60 one-dose screen, 48 h (100 = growth as untreated, 0 = no growth, -100 = all killed)
# run-conditions: 10 µM unless noted
# Description: Growth inhibition of the OVCAR-5 human tumor cell line is measured as a screen for anti-cancer activity. Cells are grown in 96 well plates and exposed to the test compound for 48 hours. Compounds are tested at a single concentration, which is 10^-5 M for most compounds. The reported endpoint is percent growth (GI% or GIPRCNT), where numbers from 0 - 100% represent growth inhibition, and numbers from -100% - 0 represent cell death. For example, a value of 40 represents 60% growth inhibition. […]
Compounds without any hit were thinned out: in the full panel of roughly 83,000, 20% have a hit.
# reported growth; entries follow
Just the number in %, nothing appended.

Illustrative cases are given below, each with its answer.
{"compound": "Cn1c2c(Cl)c(Cl)ccc2c2c(C#N)c[nH]c(=O)c21", "scale-unit": "%", "reported-value": 123}
{"compound": "COc1cc2[nH]c(C(=O)c3cc(OC)c(OC)c(OC)c3)c(N)c2cc1C#CCO", "scale-unit": "%", "reported-value": 15.9}
{"compound": "C=C(C)[C@@H]1CC[C@]2(C)[C@H](CC[C@@H]3[C@H]4[C@H]5OC[C@@]4(CCC5(C)C)CC[C@]32C)[C@@]1(C)CCCN", "scale-unit": "%", "reported-value": 50.6}
{"compound": "O=[N+]([O-])c1ccc(N/N=C(\\C(=N/Nc2ccc([N+](=O)[O-])cc2[N+](=O)[O-])c2ccccc2)c2ccccc2)c([N+](=O)[O-])c1", "scale-unit": "%", "reported-value": 98.4}
{"compound": "Fc1ccc(Nc2nnc(-c3ccc(Cl)cc3)o2)cc1", "scale-unit": "%", "reported-value": 98.3}

I would be grateful if you could share the reported growth for CCN1CCN(C(=O)[C@]23CCC(C)(C)C[C@@H]2C2=CC[C@@H]4[C@@]5(C)C/C(=C/c6ccncc6)C(=O)C(C)(C)[C@@H]5CC[C@@]4(C)[C@]2(C)CC3)CC1 .
-20.4

Now try Cc1cc(N(CCCNc2ccnc3cc(Cl)ccc23)Cc2ccco2)nc(Cl)n1 .
69.3

Now try NC1=NN=C2N(N)C(=O)c3cnn(-c4ccccc4)c3N2c2nc(-c3ccccc3)cc(-c3ccccc3)c21 .
104

Now try c1ccc(-c2nc(Nc3ccc(-c4nc5ccccc5[nH]4)cc3)nc(N3CCOCC3)n2)cc1 .
0.632

Now try Cn1cc(-c2csc(-c3cn(CCN)c4ccccc34)n2)c2cccnc21 .
74.9

Now try Cc1ccc(-c2nc([P+](c3ccccc3)(c3ccccc3)c3ccccc3)c(N3CCOCC3)o2)cc1 .
18.9

Now try O=C1C(Cl)=C(Nc2ccc(S(=O)(=O)c3ccc(NC4=C(Cl)C(=O)c5ccccc5C4=O)cc3)cc2)C(=O)c2ccccc21 .
100

Now try O=C1C(=O)N(CCCCn2cc(-c3ccccc3)nn2)c2ccccc21 .
102

Now try C=C(C)[C@@H]1CC[C@]2(C)[C@H](CC=C3[C@@H]4CC(C)(C)CC[C@]4(C(=O)OC)CC[C@]32C)[C@@]1(C)CC/C(N)=N/O .
90.4

Now try COc1cc(-c2cc(-c3nc4ccc(F)cc4[nH]3)[nH]n2)cc(OC)c1OC .
88.5

Now try CC1c2ccccc2N(S(=O)(=O)c2ccccc2)C1C (configuration not stated) .
108

Now try COc1ccc(C(=O)c2ccc(C)cc2)c(OC)c1OC .
93

Now try O=C(NO)c1ccc(Cn2c(=O)n(-c3ccccc3)c(=O)c3ccccc32)cc1 .
62.2

Now try Oc1cc(/C=C/c2nc(N3CCOCC3)c3cc(Cl)c(Cl)cc3n2)cc(O)c1O .
102

Now try c1ccc(C2Cc3ccccc3C2=NC2CCCCC2)cc1 (configuration not stated) .
90.8

---

# Test system: ACHN renal
# procedure-text: NCI-60 one-dose screen, 48 h (100 = growth as untreated, 0 = no growth, -100 = all killed)
# run-conditions: 10 µM unless noted
The panel holds about 83,000 compounds, 20% with a hit somewhere; the sample as a whole holds those more often.
Group membership follows growth per the scheme lower = under 30%, middle = from 30% up to 90%, upper = 90% and over

{"molecule": "Cn1c2c(Cl)c(Cl)ccc2c2c(C#N)c[nH]c(=O)c21", "label-class": "upper"}
{"molecule": "Clc1ccc2[nH]cc(-c3nc(-c4c[nH]c5ncccc45)cs3)c2c1", "label-class": "lower"}
{"molecule": "CC(=O)n1c(/C(C#N)=C/c2ccc(N(C)C)cc2)cc2ccccc21", "label-class": "middle"}
{"molecule": "Cc1ccc2c(c1)c1nc3cc(C)c(C)cc3nc1n2CCN(C)C", "label-class": "lower"}
{"molecule": "N=c1ccc2nc3c(cc(N)c4ccccc43)oc-2c1", "label-class": "lower"}
{"molecule": "CC(=O)c1c(C)[nH]c(-c2nc3ccc(N4CCN(C)CC4)cc3[nH]2)c1-c1ccc(OCC2CCOCC2)cc1", "label-class": "lower"}

The entry to classify is CC(=O)Nc1cc(F)cc(C(F)(F)F)c1Cl ; which class holds it?
upper

Now try CN(C)CCCC1(c2ccc(F)cc2)OCc2cc(-c3ccc(C(F)(F)F)nc3)ccc21 (stereo not given) .
middle

Now try Cc1ccc2c(c1)c(-c1nc(-c3c[nH]c4ncccc34)cs1)cn2C .
upper

---

# Tested on: SF-295 CNS
# procedure-text: NCI-60 one-dose screen, 48 h
# run-conditions: 10 µM unless noted
This is part of a sample that, as a whole, favours compounds with a hit. Of some 83,000 tested, about 20% had one in any assay. Calls of active or inactive are those of the source. Rule for the calls: active = growth percent below 10; inactive = the rest.
In this exercise, the only acceptable responses are t = active, f = inactive

Below are worked cases with known answers.
{"molecule": "COc1ccc(-c2nc(Nc3ccc(-c4nc5ccccc5[nH]4)cc3)nc(N3CCOCC3)n2)cc1", "label-class": "t"}
{"molecule": "CC1(C)NC2=C(C(Nc3cccnc3)N1)C(c1ccc([N+](=O)[O-])cc1)C(C(=O)c1ccc(N=[N+]=[N-])cc1)O2 (stereo not given)", "label-class": "f"}
{"molecule": "O=C1CN(c2ccccc2)C(=O)C1C(=O)Nc1ccc(Cl)c(Cl)c1 (stereo not given)", "label-class": "t"}
{"molecule": "CN(C)CCCCC(C(=O)CBr)(c1ccccc1)c1ccccc1", "label-class": "f"}

Entry N#CC1=C(N)Oc2c(c(N)nn2-c2ccccc2)C1c1ccc(Cl)cc1Cl (stereo not given) : call = ?
f

---

# Tested on: IGROV1 ovarian
# procedure-text: NCI-60 one-dose screen, 48 h (100 = growth as untreated, 0 = no growth, -100 = all killed)
# run-conditions: 10 µM unless noted
The panel holds about 83,000 compounds, 20% with a hit somewhere; the sample as a whole holds those more often.
# reported growth; entries follow
Just the number in %, nothing appended.

{"compound-smiles": "O=c1[nH]c2c3ccncc3cc(-c3cccc(Cl)c3)c2c2cnccc12", "scale-unit": "%", "growth": 70.9}
{"compound-smiles": "C=COCCCCCCCCCCCCCCCCCC", "scale-unit": "%", "growth": 118}
{"compound-smiles": "O=C(NCN1C(=O)c2cccc3cccc(c23)C1=O)N1CCC(Cc2ccccc2)CC1", "scale-unit": "%", "growth": 100}

Find growth (IGROV1 ovarian) for the entry Oc1cc(/C=C/c2nc(N3CCOCC3)c3cc(Cl)c(Cl)cc3n2)cc(O)c1O
108

Now try CC(=O)O[C@H]1CC[C@@]2(C)C(=CC[C@@H]3[C@@H]2CC[C@]2(C)C(=O)N(O)C(=O)C[C@@H]32)C1 .
83.3

Reference source for all entries: PubChem BioAssay (NCI)
